- assay.summary: Human liver microsome intrinsic clearance
- Type: in vitro ADME
- measurement.context: human liver microsomes, NEU; read-out: HLM CLint (NEU)
Mark n for microsomal CLint values under 100 µL/min/mg, and y for everything at or above.

Look over these answered cases.
Clc1ccc(-c2c(-c3ccccn3)nc3n2CCC3)cc1 y
c1ccc(-c2nc3n(c2-c2ccc4occc4c2)CCC3)nc1 n

query: Can CN(c1ccc(F)cc1)c1c(-c2ccccn2)nc2c(F)cccn12 be said to have microsomal CLint at or above 100 µL/min/mg?
result: y

query: Can Fc1ccc(Nc2c(-c3ccccn3)nc3ccccn23)cc1 be said to have microsomal CLint at or above 100 µL/min/mg?
result: y

query: Can c1ccc(-c2nc3n(c2-c2ccc4occc4c2)CCC3)cc1 be said to have microsomal CLint at or above 100 µL/min/mg?
result: y

query: Can CSc1ccc2nc(-c3ccccn3)c(N(C)c3ccc(F)cc3)n2c1 be said to have microsomal CLint at or above 100 µL/min/mg?
result: y

query: Can COc1ccn2cc(-c3ccccn3)nc2c1 be said to have microsomal CLint at or above 100 µL/min/mg?
result: y

---

- System: VSE
- assay.summary: In vitro antibacterial activity, MIC, VSE
- Assay type: cell-based
value.type: VSE MIC

Known VSE MIC results, listed for orientation:
c1ccc(-c2nc3ccccc3n2-c2ccc3occc3c2)nc1 > 32 µg/mL
c1ccc(-c2nc3ccccc3n2-c2ccc(N3CCCCC3)cc2)nc1 32 µg/mL
c1ccc(Cn2c(-c3ccccn3)nc3ccccc32)cc1 > 32 µg/mL
Clc1ccn2c(-c3ccc4occc4c3)c(-c3ccccn3)nc2c1 16 µg/mL
N#Cc1ccc(-n2c(-c3ccccn3)nc3ccccc32)cc1 > 32 µg/mL

Record COc1ccnc(-c2nc3cc(OC)ccn3c2N(C)c2ccc(F)cc2)c1 has VSE VSE MIC equal to 8 µg/mL

Record c1ccc(-c2nc3ccccc3n2-c2ccc(N3CCOCC3)cc2)nc1 has VSE VSE MIC equal to > 32 µg/mL

Record c1ccc(-n2c(-c3ccccn3)nc3ccccc32)cc1 has VSE VSE MIC equal to > 32 µg/mL

Record COc1ccc2nc(-c3ccccn3)c(N(C)c3cc(F)cc(F)c3)n2c1 has VSE VSE MIC equal to 16 µg/mL

Record NC(=O)c1ccc(-n2c(-c3ccccn3)nc3ccccc32)cc1 has VSE VSE MIC equal to > 32 µg/mL

Record N#CCc1ccc(-n2c(-c3ccccn3)nc3ccccc32)cc1 has VSE VSE MIC equal to > 32 µg/mL

---

- Test system: PMM (primary mouse macrophages)
- assay.summary: Toxicity against PMM
- Format: cell-based
- measurement.context: PMM
Listing: PMM TC50 of selected compounds
Record the value in µM, omitting the unit from your answer.

CS(=O)(=O)c1ccc2nc(-c3ccccn3)c(Nc3ccc(F)cc3)n2c1 32
c1ccc(-n2c(-c3ccccn3)nc3ccccc32)cc1 64
N#Cc1ccc(-c2c(-c3ccccn3)nc3n2CCC3)cc1C(F)(F)F 64
Cc1ccc2nc(-c3ccccc3)cn2c1 64

Lab book: PMM TC50 of Cc1ccn2c(CN(CC(C)C)c3cccc(C(F)(F)F)c3)c(-c3ccccn3)nc2c1 noted as 32

Lab book: PMM TC50 of Fc1cccc(-c2c(-c3ccccn3)nc3n2CCC3)c1 noted as 54.63

Lab book: PMM TC50 of COc1ccn2c(-c3ccc(F)cc3)c(-c3ccccn3)nc2c1 noted as 8

Lab book: PMM TC50 of Fc1cc(-c2c(-c3ccccn3)nc3n2CCC3)ccn1 noted as 32

Lab book: PMM TC50 of Cc1ccc2nc(-c3ccccc3)c(CNc3cccc(C(F)(F)F)c3)n2c1 noted as 64

---

- Tested on: THP1
- assay.summary: Toxicity against THP1
- Format: cell-based
- measurement.context: THP1 cells
value.type: THP1 TC50 (µM)
Record the value in µM, omitting the unit from your answer.

Lab book: THP1 TC50 of COc1ccn2c(-c3ccc(F)cc3)c(-c3ccccn3)nc2c1 noted as 7.63

Lab book: THP1 TC50 of COc1ccn2c(Nc3ccccc3F)c(-c3cnn(C)c3)nc2c1 noted as 50

Lab book: THP1 TC50 of COc1ccn2c(-c3ccccc3)c(-c3ccccn3)nc2c1 noted as 5.01

Lab book: THP1 TC50 of Fc1ccc(-c2c(-c3ccccn3)nc3ccccn23)cc1 noted as 17

---

Listing: MIC of selected compounds
- Test system: Staphylococcus aureus ATCC 43300 MRSA
- assay.summary: CO-ADD antibacterial assay (growth inhibition, MIC), MRSA
- Type: cell-based
- measurement.context: read-out: MRSA MIC (CO-ADD)
Record the value in µg/mL, omitting the unit from your answer.

Known MIC results, listed for orientation:
c1ccc(-c2nc3ccccn3c2-c2ccc3c(c2)OCO3)nc1 32
c1ccc(-c2nc3n(c2-c2ccc4c(c2)OCC4)CCC3)nc1 32
c1ccc(-c2nc3n(c2-c2ccc4c(c2)OCO4)CCCC3)nc1 16
c1ccc(-c2nc3n(c2-c2ccc4c(c2)OCO4)CCS3)nc1 32

# evaluate next
Lab book: MIC of c1ccc(-c2nc3n(c2-c2ccc4ccoc4c2)CCC3)nc1 noted as 4

---

- assay.summary: HEK293 toxicity, 96-well dose-response (UCL; MTT or resazurin, with or without recovery)
- Type: cell-based, human
- measurement.context: human, HEK293 cells; across protocol variations (recovery yes/no, MTT/resazurin); read-out: CC50 HEK293
value.type: CC50 at 24 h

Lab book: CC50 at 24 h of CC/C(=C(\c1ccccc1)c1ccc(OCCN(C)C)cc1)c1ccccc1 [tamoxifen, reference compound] noted as 5.3 to 15.5 µg/mL

---

Listing: MIC of selected compounds
- Test system: Staphylococcus aureus NCTC 13373 (mecA-positive; methicillin-resistant)
- assay.summary: In vitro antibacterial activity, MIC (UCL School of Pharmacy assay), MRSA
- Assay type: cell-based
- measurement.context: Staphylococcus aureus, UCL; read-out: MRSA MIC (UCL)
Record the value in µg/mL, omitting the unit from your answer.

Known MIC results, listed for orientation:
CN(c1ccc(F)cc1)c1c(-c2ccccn2)nc2ccc(Br)cn12 16
c1ccc(-c2c(-c3ccccn3)nc3n2CCC3)cc1 32
CN(c1ccc(F)cc1)c1c(-c2ccccn2)nc2cccc(F)n12 32
Cc1ccc(-c2c(-c3ccccn3)nc3cc(Cl)ccn23)cc1 4
COc1ccc2nc(-c3ccccn3)c(N(C)c3ccc(F)cc3)n2c1 4
COc1ccnc(-c2nc3cc(OC)ccn3c2N(C)c2ccc(F)cc2)c1 2

Record Cc1ccc(-c2c(-c3ccccn3)nc3n2CCC3)cc1 has Staphylococcus aureus NCTC 13373 (mecA-positive; methicillin-resistant) MIC equal to 4

Record c1ccc(-c2nc3n(c2-c2ccc4c(c2)OCO4)CCC3)nc1 has Staphylococcus aureus NCTC 13373 (mecA-positive; methicillin-resistant) MIC equal to 32

Record COc1ccn2c(-c3ccc(F)cc3)c(-c3ccccn3)nc2c1 has Staphylococcus aureus NCTC 13373 (mecA-positive; methicillin-resistant) MIC equal to 16

Record CCN(CC)c1ccc(-c2c(-c3ccccn3)nc3ccccn23)cc1 has Staphylococcus aureus NCTC 13373 (mecA-positive; methicillin-resistant) MIC equal to 4

Record Cc1nc2cc(-c3c(-c4ccccn4)nc4n3CCC4)ccc2s1 has Staphylococcus aureus NCTC 13373 (mecA-positive; methicillin-resistant) MIC equal to 32

---

Listing: MRC5 TC50 of selected compounds
- System: MRC-5SV2 (human lung fibroblast cell line)
- assay.summary: Toxicity against MRC-5SV2
- Assay type: cell-based
Record the value in µg/mL, omitting the unit from your answer.

Known MRC5 TC50 results, listed for orientation:
compound	MRC5 TC50 [µg/mL]
Nc1ccc(-c2c(-c3ccccn3)nc3n2CCC3)cc1 [compound 1074]	1.6
COc1ccn2cc(-c3ccccn3)nc2c1 [compound 856]	11.6
N#CCc1ccc(-n2c(-c3ccccn3)nc3ccccc32)cc1 [compound 996]	19.9
N#Cc1ccc(-c2c(-c3ccccn3)nc3n2CCC3)cn1 [compound 1075]	18.4
CCN(c1ccc(F)cc1)c1c(-c2ccccn2)nc2ccccn12 [compound 981]	1.6

Lab book: MRC5 TC50 of N#Cc1ccc(-c2c(-c3ccccn3)nc3n2CCC3)cc1C(F)(F)F [compound 1077] noted as 22.7

Lab book: MRC5 TC50 of Clc1ccc(-c2c(-c3ccccn3)nc3n2CCC3)cc1 [compound 875] noted as 1.6

Lab book: MRC5 TC50 of CCCCN(Cc1c(-c2ccccc2)nc2ccc(C)cn12)c1cccc(C(F)(F)F)c1 [compound 1029] noted as 0.5

Lab book: MRC5 TC50 of c1ccc(Cn2c(-c3ccccn3)nc3ccccc32)cc1 [compound 993] noted as 18.3

Lab book: MRC5 TC50 of COc1cc(-c2c(-c3ccccn3)nc3n2CCC3)ccc1C#N [compound 1076] noted as 8.8

Lab book: MRC5 TC50 of c1ccc(-c2nc3ccccc3n2-c2ccc(N3CCOCC3)cc2)nc1 [compound 995] noted as 22.8
